B1: library; numbered along this chain (parent)
chain: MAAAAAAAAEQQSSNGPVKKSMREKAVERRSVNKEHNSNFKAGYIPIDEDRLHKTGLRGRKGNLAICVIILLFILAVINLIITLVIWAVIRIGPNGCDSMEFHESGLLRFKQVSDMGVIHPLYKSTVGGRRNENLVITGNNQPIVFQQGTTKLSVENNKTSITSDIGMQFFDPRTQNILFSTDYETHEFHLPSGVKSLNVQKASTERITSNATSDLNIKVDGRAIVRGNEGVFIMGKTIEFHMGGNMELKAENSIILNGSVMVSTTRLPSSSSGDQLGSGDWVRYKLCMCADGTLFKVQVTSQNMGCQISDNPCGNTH

# Variants of: B1
# measurement protocol: SGCB cell-surface expression functional score (HA stain, bin4 vs bin1, normalised to synonymous) (log10 ratio); higher = more cell-surface SGCB (functional)
Note to self: class labels come from recorded SGCB cell-surface expression functional score (log10), ranges listed here: low: < -0.2; moderate: ≥ -0.2 and < 0.1; high: ≥ 0.1

Use these answered entries as a reference point.
> print(dat)
   variant.string  label.class
1           S214N     moderate
2           Q142V     moderate
3           F241W         high

Task: Which bin should I file Q148H under?
Output: low

Task: Given G278D , name the class its SGCB cell-surface expression functional score (log10) places it in.
Output: high

Task: # bin lookup: classify R207I by its SGCB cell-surface expression functional score (log10)
Output: low

Task: Which category does the recorded SGCB cell-surface expression functional score (log10) put R227F in?
Output: low

Task: Where would G106N land among the classes by reported SGCB cell-surface expression functional score (log10)?
Output: low

Task: Input E206A ; output its category
Output: high

Task: Each variant maps to one class by SGCB cell-surface expression functional score (log10). Which class for G259P ?
Output: low

Task: Which band does M289P fall in?
Output: low

Task: Kindly identify the class of Y44K .
Output: moderate
